Test system: UACC-62 melanoma
PROTOCOL DETAILS: NCI tumour cell line growth inhibition, 48 h
READOUT TYPE: TGI (µM)
Give your result in µM as a bare value.

Some compounds with recorded TGI:
{"columns": ["COMPOUND", "TGI, µM"],
 "data": [
  ["S=C(Nc1ccc(Cl)cc1)Nc1ccc(-c2nc3ccccc3s2)cc1", 24.8],
  ["Cc1cc(Nc2ccc(NC(=O)c3ccc(Nc4ccnc5ccccc45)cc3)cc2)nc(N)n1", 5.84],
  ["O=C1c2ccccc2C(=O)N1CCn1ccc(NC(c2ccccc2)(c2ccccc2)c2ccccc2)nc1=O", 26]
]}

### Prompt Given the compound CO/N=C(\C)c1ccc(Nc2nc3ccccc3c3occc23)cc1 , what is its reported TGI?
### Response 24.7

### Prompt Further, for CC(=O)CCn1ncc(Cl)c(Cl)c1=O ?
### Response 33.3

### Prompt Further, for CC(=O)OC1COC(Oc2c(C)c3c4c(c2O)[C@@H](C)CC[C@@H]4[C@@H](C)C[C@H]3C=C(C)C)C(O)C1OC(C)=O (stereo partly drawn) ?
### Response 28.9

### Prompt Further, for [N-]=[N+]=Nc1c([N+](=O)[O-])c(=O)n(-c2ccccc2)c2ccccc12 ?
### Response 59

### Prompt Further, for NS(=O)(=O)c1ccc(/C=C/c2ccc(O)c(O)c2)cc1 ?
### Response 42.2

### Prompt Further, for C[C@H]1[C@H]2[C@H]3CC[C@@H]4[C@@]5(C)CC[C@H](O)C(C)(C)[C@@H]5CC[C@@]4(C)[C@]3(C)C[C@H](O)[C@@]2(C)C[C@H]2O[C@]21C ?
### Response 76

### Prompt Further, for Cc1ccc(S(=O)(=O)c2[nH]cc(/C(=C\C3CCCCC3)[N+](=O)[O-])c2C2CCCCC2)cc1 ?
### Response 0.625

### Prompt Further, for CC1=NN(c2nc(N)nc(/C(C#N)=C\c3ccc([N+](=O)[O-])s3)n2)C(C)(C)C1 ?
### Response 2.25

---

Test system: HCT-15 colon
PROTOCOL DETAILS: NCI tumour cell line growth inhibition, 48 h
READOUT TYPE: TGI

{"columns": ["MOLECULE", "TGI"],
 "data": [
  ["O=C1c2cccc3c2C(=O)c2c(cccc21)OCCOCCOCCOCCO3", "> 100 µM"]
]}

### Prompt Given the molecule Cc1c(O)ccc2c(O)c(NC(=O)c3ccc4c(c3)CCC(C)(C)O4)c(=O)oc12 , what is its reported TGI?
### Response > 100 µM

### Prompt Further, for COc1ccc(/C=C2\CCNC2=O)cc1 ?
### Response > 100 µM

### Prompt Further, for COC(=O)/C=C(\C(=O)OC)C1C(=O)Oc2c(C)c(=O)c3ccccc3n21 (configuration not stated) ?
### Response > 100 µM

### Prompt Further, for O=C(O)COc1ccc2c(=O)c3sc4c(=O)c5ccccc5c(=O)c4c3c(=O)c2c1 ?
### Response 18.2 µM

### Prompt Further, for CC1=C(C)CC2C(=O)N(c3cc(C(C)(C)C)ccc3C(C)(C)C)C(=O)C2C1 (configuration not stated) ?
### Response > 100 µM

### Prompt Further, for CCCNC(=O)NNC(=O)c1c[nH]c2nc(C)ccc2c1=O ?
### Response > 100 µM

### Prompt Further, for CCOC(=O)C1=CN(C)C=C(C(=O)OCC)C1c1cc(Br)c(OCC)c(OC)c1 ?
### Response > 100 µM

### Prompt Further, for CC1=C(C(=O)Nc2ccc(F)c(Cl)c2)C(c2ccccc2O)NC(=S)N1 (configuration not stated) ?
### Response > 50 µM

### Prompt Further, for COc1cccc(CCNC(=O)Cc2ccccc2CCO)c1 ?
### Response > 100 µM

### Prompt Further, for COc1cc(C(=O)N2CCN(C=O)C2=S)cc(OC)c1OC ?
### Response 73.6 µM

### Prompt Further, for CC(=O)OC1/C=C(\C)C(OC(C)=O)C/C=C(/C)CCC2C(/C=C/C1=O)C2(C)C (configuration not stated) ?
### Response > 100 µM

### Prompt Further, for CC(C)CCC1CC2C(=O)N(c3ccccc3)C(=O)C2c2[nH]c3ccccc3c21 (configuration not stated) ?
### Response 13.4 µM

All values here come from PubChem BioAssay (NCI).
